- system: T1, human collagen type I (acid soluble, extracted from placenta, Sigma C7774) (human, UniProt P02452 162-1218; P08123 80-1119)
- T1 construct: gelled and dried as a fibril film in the assay; also called dried human collagen; h-Collagen
- T1 sequence (P02452 162-1218 limits assumed, chain 1 of 2): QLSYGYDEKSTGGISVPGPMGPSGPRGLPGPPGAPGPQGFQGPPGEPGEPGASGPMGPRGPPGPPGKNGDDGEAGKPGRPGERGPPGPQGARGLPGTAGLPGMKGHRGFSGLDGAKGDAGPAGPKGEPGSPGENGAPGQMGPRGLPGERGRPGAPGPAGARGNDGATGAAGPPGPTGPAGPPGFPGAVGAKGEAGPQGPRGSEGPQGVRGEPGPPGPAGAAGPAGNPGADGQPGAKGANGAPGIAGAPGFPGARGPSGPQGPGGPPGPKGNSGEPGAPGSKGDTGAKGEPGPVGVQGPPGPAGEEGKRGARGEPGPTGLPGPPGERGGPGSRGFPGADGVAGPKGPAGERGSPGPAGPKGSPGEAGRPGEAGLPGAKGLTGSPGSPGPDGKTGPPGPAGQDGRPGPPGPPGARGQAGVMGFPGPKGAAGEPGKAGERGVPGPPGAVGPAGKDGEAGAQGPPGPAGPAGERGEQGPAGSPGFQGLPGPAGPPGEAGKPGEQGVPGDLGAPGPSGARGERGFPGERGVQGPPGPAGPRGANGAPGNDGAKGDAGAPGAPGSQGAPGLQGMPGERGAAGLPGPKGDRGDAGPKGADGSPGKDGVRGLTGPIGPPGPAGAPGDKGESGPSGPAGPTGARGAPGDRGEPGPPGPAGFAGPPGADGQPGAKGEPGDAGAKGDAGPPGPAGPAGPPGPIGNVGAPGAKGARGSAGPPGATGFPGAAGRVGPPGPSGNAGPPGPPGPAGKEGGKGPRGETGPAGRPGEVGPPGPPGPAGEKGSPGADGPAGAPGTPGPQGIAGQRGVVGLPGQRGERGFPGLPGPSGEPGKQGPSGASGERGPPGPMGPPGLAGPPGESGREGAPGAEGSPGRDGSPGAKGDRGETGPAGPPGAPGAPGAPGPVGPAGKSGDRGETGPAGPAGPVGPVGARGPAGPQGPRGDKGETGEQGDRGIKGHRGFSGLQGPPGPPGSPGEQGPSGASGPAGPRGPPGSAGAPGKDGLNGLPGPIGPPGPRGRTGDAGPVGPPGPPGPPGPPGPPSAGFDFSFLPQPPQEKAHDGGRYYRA
- T1 sequence (P08123 80-1119 limits assumed, chain 2 of 2): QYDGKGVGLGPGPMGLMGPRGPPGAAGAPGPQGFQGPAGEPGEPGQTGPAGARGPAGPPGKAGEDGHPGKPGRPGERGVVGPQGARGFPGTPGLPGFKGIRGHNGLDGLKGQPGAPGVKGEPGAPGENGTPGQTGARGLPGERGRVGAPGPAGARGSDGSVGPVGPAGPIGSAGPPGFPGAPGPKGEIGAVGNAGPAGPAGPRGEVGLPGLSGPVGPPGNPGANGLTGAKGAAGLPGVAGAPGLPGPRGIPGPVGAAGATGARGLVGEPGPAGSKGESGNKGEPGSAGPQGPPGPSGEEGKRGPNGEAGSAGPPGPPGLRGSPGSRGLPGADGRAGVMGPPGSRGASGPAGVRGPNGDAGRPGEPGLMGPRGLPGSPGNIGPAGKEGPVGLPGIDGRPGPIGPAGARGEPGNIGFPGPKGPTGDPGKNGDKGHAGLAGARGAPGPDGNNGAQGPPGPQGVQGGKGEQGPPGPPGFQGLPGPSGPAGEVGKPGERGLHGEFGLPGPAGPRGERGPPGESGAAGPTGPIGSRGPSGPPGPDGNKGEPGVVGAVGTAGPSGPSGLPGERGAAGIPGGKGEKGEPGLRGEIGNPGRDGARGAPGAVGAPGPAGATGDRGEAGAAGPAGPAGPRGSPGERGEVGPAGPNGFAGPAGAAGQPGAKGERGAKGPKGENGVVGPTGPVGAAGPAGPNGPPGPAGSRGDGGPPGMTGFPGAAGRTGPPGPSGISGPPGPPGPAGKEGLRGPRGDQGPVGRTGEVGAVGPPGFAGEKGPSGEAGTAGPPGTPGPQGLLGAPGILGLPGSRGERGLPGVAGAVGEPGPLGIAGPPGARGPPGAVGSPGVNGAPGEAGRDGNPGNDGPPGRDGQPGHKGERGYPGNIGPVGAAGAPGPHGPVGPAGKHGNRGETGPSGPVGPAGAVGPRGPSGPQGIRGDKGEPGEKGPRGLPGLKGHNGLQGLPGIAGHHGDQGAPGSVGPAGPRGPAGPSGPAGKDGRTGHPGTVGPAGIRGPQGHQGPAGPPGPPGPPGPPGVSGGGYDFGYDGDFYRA
- assay_procedure: dried collagen assay
Bridge positions count the residues as written; N and C are the ends. Ends that are not written are not given here.
experimental_endpoint: % bound

Here is how some binders turned out for % bound.
binder	% bound
YAACYQAGCWIW (disulfide 4-9 (inferred)) [SEQ ID NO: 132]	53%
YHACYQAGCWIA (disulfide 4-9 (inferred)) [SEQ ID NO: 138]	2%

Proceed to the following item.
Q) So what does the record say about % bound for AHACYQAGCWIW (disulfide 4-9 (inferred)) [SEQ ID NO: 131] ?
A) 7%
